The following compounds are listed with their measured Percent Inhibition at a Specified Density (μg/ml): 3 values.
System: SVR cells
Assay: SVR cell assay: cell numbers counted at 48 hours, percent inhibition versus control
Format: cell-based, murine
Settings: 3 μg/ml; 10,000 SVR cells in 24 well dish; counted at 48 hours
Answer format: numeric, % implied, no suffix.

O=C(C=Cc1ccccc1)c1ccc[nH]1 | 11.4

Report measured Percent Inhibition at a Specified Density (μg/ml): 3; entry is "O=C(/C(Br)=C/c1ccccc1)c1ccccc1"
75.7

Report measured Percent Inhibition at a Specified Density (μg/ml): 3; entry is "O=C(C=Cc1ccccn1)c1ccccc1"
89.1

Report measured Percent Inhibition at a Specified Density (μg/ml): 3; entry is "O=C(C=Cc1ccccc1)c1ccc2ccccc2c1"
92.2
